Where these numbers come from: paper PMC6166404

Tested on: Mtb H37Rv (ATCC 27294)
Assay type: cell-based
Settings: Mtb H37Rv, two weeks in culture

>  <compound>
C[C@H](Oc1cccc(Cl)c1Cl)C(=O)Nc1ccc2oc(-c3ccc(C(=O)NO)cc3)nc2c1 [Compound 21]

>  <antibacterial activity over two weeks>
retained activity

$$$$
>  <compound>
C[C@H](Oc1cccc(Cl)c1Cl)C(=O)Nc1ccc2oc(-c3ccc(C(=O)O)cc3)nc2c1 [Compound 22]

>  <antibacterial activity over two weeks>
retained activity

$$$$

---

pKi: −log10 of the molar value.
Quick record: pKi, UniProtKB Q9P2T1.
Sequence (Q9P2T1 whole entry): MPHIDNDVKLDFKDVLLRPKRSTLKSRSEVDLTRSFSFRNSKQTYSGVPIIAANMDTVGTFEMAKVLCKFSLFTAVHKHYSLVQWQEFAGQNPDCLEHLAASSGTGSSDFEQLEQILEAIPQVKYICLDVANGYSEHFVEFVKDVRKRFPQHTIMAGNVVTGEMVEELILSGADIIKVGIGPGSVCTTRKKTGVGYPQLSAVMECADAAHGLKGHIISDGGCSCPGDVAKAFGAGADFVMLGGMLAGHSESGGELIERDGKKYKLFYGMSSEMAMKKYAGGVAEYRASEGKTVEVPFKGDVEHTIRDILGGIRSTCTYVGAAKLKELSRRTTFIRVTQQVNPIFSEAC

>  <molecule>
COc1ccc(-c2nc3cc(NC[C@H](C)Oc4cccc(Cl)c4Cl)ccc3o2)cc1

>  <valueType>
pKi

>  <recordedValue>
< 5.30

$$$$

Problem: Need pKi, item C[C@H](Oc1cccc(Cl)c1Cl)C(=O)Nc1ccc2oc(-c3ccc(-c4nnn[nH]4)cc3)nc2c1
Solution: < 5.30
